IC50 values by entry
target: JAK2 (Homo sapiens (Human), UniProt O60674); assay: JAK2 kinase inhibition assay (33P-ATP, Reaction Biology Corp.); format: biochemical; details: substrate pEY, 120 min at room temperature, read-out: In Vitro Enzyme IC50 (nM) JAK2
Sequence (O60674 809-1132): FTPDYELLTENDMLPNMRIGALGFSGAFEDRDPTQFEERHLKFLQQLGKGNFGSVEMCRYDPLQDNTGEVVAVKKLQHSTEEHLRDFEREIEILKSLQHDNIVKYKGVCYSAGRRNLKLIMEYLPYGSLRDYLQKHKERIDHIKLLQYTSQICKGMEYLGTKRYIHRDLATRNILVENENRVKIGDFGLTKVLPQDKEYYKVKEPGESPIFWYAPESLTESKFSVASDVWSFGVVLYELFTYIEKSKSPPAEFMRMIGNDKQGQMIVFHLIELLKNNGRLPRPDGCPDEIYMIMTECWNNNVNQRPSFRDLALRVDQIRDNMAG

Smiles input | Parameter | Result
CNCCNC(=O)c1ccc(Nc2oc(-c3c(F)cccc3F)nc2C(N)=O)cc1 | IC50 | 311 nM
CN1CCC(NC(=O)c2ccc(Nc3oc(-c4c(F)cccc4F)nc3C(N)=O)cc2)CC1 | IC50 | 192 nM
CS(=O)(=O)c1ccc(Nc2oc(-c3c(F)cccc3Cl)nc2C(N)=O)cc1 | IC50 | 72.6 nM
CS(=O)(=O)c1ccc(Nc2oc(-c3c(F)cccc3F)nc2C(N)=O)cc1 | IC50 | 235 nM
CN(C)S(=O)(=O)c1ccc(Nc2oc(-c3c(F)cccc3F)nc2C(N)=O)cc1 | IC50 | 95 nM

**Q:** Item CS(=O)(=O)c1ccc(Nc2oc(-c3cc(F)ccc3F)nc2C(N)=O)cc1 : provide IC50
**A:** 663 nM

**Q:** Return reported IC50. Input compound: NC(=O)c1nc(-c2c(F)cccc2F)oc1Nc1ccc(C(=O)N[C@@H]2CCCNC2)cc1
**A:** 261 nM

**Q:** Note IC50 for the compound shown: NC(=O)c1nc(-c2c(F)cccc2F)oc1Nc1ccc(C(=O)N2CCC[C@@H]2CO)cc1
**A:** 36 nM

====

Each entry below carries its recorded IC50.
biological target: JAK1 (Homo sapiens (Human), UniProt P23458); test: JAK1 kinase inhibition assay (33P-ATP, Reaction Biology Corp.); format: biochemical; settings: substrate pEY, 120 min at room temperature, read-out: In Vitro Enzyme IC50 (nM) JAK1
Sequence (P23458 866-1154): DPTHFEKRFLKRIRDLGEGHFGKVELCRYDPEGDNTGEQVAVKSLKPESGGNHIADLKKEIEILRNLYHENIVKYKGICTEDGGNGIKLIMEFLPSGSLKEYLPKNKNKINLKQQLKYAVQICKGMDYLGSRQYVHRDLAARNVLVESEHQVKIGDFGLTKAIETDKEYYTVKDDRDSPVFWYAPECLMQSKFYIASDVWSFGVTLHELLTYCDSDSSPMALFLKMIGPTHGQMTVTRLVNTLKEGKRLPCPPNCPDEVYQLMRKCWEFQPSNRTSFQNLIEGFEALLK
Numeric answer only, unit nM assumed.

Known IC50 results, listed for orientation:
Molecule | Display unit | Recorded number
NC(=O)c1nc(-c2c(F)cccc2F)oc1Nc1ccc(C(=O)N2CCOCC2)cc1 [Example 9] | nM | 75.6
NC(=O)c1nc(-c2c(F)cccc2F)oc1Nc1ccc(C(=O)N[C@H]2CCCNC2)cc1 [Example 8] | nM | 201
NCCCNC(=O)c1ccc(Nc2oc(-c3c(F)cccc3F)nc2C(N)=O)cc1 [Example 6] | nM | 192
CN(C)S(=O)(=O)c1ccc(Nc2oc(-c3c(F)cccc3F)nc2C(N)=O)cc1 [Example 3] | nM | 47.6
CN(C)C(=O)c1ccc(Nc2oc(-c3c(F)cccc3F)nc2C(N)=O)cc1 [Example 5] | nM | 88.6
NC(=O)c1nc(-c2c(F)cccc2F)oc1Nc1ccc(C(=O)NC2CCNCC2)cc1 [Example 17] | nM | 153

**Q:** Report value: IC50, system: JAK1 (Homo sapiens (Human), UniProt P23458), molecule: CN1CCC(NC(=O)c2ccc(Nc3oc(-c4c(F)cccc4F)nc3C(N)=O)cc2)CC1 [Example 18]
**A:** 118

**Q:** Report its IC50 with JAK1 (Homo sapiens (Human), UniProt P23458) as the test system: NC(=O)c1nc(-c2c(F)cccc2F)oc1Nc1ccc(C(=O)NCCCO)cc1 [Example 16]
**A:** 58.1

====

target: JAK3 (Homo sapiens (Human), UniProt P52333); test: JAK3 kinase inhibition assay (33P-ATP, Reaction Biology Corp.); assay type: biochemical; settings: substrate JAK3tide, 120 min at room temperature, read-out: In Vitro Enzyme IC50 (nM) JAK3
Sequence (P52333 781-1124): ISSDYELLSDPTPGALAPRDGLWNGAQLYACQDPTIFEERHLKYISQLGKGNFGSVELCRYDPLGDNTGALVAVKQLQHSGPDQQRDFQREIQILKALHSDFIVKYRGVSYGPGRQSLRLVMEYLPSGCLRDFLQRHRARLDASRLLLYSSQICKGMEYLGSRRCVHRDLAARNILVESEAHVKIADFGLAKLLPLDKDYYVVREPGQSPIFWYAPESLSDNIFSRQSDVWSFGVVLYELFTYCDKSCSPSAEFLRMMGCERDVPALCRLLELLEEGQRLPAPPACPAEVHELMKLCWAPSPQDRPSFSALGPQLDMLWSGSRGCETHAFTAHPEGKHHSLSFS
Labelling: IC50 reported below 400 nM becomes condition met; at or above becomes condition not met.

Reference set, count: 2
Molecule | Study target | Discrete label
CN1CCC(NC(=O)c2ccc(Nc3oc(-c4c(F)cccc4F)nc3C(N)=O)cc2)CC1 [Example 18] | JAK3 (Homo sapiens (Human), UniProt P52333) | condition met
CN(C)S(=O)(=O)c1ccc(Nc2oc(-c3c(F)cccc3F)nc2C(N)=O)cc1 [Example 3] | JAK3 (Homo sapiens (Human), UniProt P52333) | condition met

**Q:** Below 400 nM on IC50? Entry NCCCNC(=O)c1ccc(Nc2oc(-c3c(F)cccc3F)nc2C(N)=O)cc1 [Example 6]
**A:** condition not met

**Q:** IC50 strictly < 400 nM for this molecule? NC(=O)c1nc(-c2c(F)cccc2F)oc1Nc1ccc(C(=O)N[C@@H]2CCNC2)cc1 [Example 12]
**A:** condition met

Ref: patent US10882829B2
